# system.tested: 5'-AMP-activated protein kinase catalytic subunit alpha-1 (Homo sapiens); also: in the data inactive means no Kd found up to 30 µM
# Sequence (Q13131 whole entry): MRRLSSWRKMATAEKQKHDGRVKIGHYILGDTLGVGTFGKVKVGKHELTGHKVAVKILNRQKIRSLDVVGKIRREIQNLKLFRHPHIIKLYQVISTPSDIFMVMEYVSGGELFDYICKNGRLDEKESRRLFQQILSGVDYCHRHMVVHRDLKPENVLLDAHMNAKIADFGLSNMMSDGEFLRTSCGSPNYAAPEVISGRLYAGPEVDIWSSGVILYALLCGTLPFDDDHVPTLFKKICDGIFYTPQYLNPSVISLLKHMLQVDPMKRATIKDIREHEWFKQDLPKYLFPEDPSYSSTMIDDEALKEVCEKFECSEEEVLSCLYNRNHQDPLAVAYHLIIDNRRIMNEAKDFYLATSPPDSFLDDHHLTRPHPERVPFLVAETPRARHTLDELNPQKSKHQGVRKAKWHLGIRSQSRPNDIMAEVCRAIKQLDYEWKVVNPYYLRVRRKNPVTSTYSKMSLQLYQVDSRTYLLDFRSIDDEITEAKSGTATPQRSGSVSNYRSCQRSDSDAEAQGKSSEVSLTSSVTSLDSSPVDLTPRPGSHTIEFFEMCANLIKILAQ
Activity calls are given as the source filed them.
Just give me one of these, please: yes (1) for active, no (0) for inactive

Tell me the recorded outcome of this test for C=CCN(/C=C1/C(=O)O[C@H](COC)[C@@]2(C)C1=C(O)C(=O)C1=C2[C@H](OC(C)=O)C[C@]2(C)C(=O)CC[C@@H]12)CC=C .
no (0)

Tell me the recorded outcome of this test for COc1cccc(Nc2ncnn3ccc(CN4CC[C@@H](N)[C@H](O)C4)c23)c1 .
no (0)

Tell me the recorded outcome of this test for Cc1cc(Nc2nc(N[C@@H](C)c3ncc(F)cn3)ncc2Cl)n[nH]1 .
no (0)

Tell me the recorded outcome of this test for CNC(=O)c1cccc(-c2ccc3c(N4CCOC[C@@H]4C)nc(N4CCOC[C@@H]4C)nc3n2)c1 .
no (0)

Tell me the recorded outcome of this test for NC[C@@](O)(c1ccc(Cl)cc1)c1ccc(-c2cn[nH]c2)cc1 .
no (0)

Tell me the recorded outcome of this test for Cc1c(NC(=O)OC[C@@H]2COCCN2)cn2ncnc(Nc3ccc4c(cnn4Cc4cccc(F)c4)c3)c12 .
no (0)

Tell me the recorded outcome of this test for COc1cccc2cc(-c3nc([C@H]4CC[C@H](C(=O)O)CC4)n4ncnc(N)c34)[nH]c12 .
no (0)

Tell me the recorded outcome of this test for CCN1CCN(Cc2ccc(Nc3ncc(F)c(-c4cc(F)c5nc(C)n(C(C)C)c5c4)n3)nc2)CC1 .
no (0)

Tell me the recorded outcome of this test for S=C(NCc1ccc2c(c1)OCO2)N1CCN(c2ncnc3c2oc2ccccc23)CC1 .
no (0)

Tell me the recorded outcome of this test for O=c1[nH]c([C@@H]2CCCN2)nc2c1oc1ccc(Cl)cc12 .
no (0)

Tell me the recorded outcome of this test for CC(C)CC(=O)Nc1[nH]nc2c1CN(C(=O)C1CCN(C)CC1)C2(C)C .
no (0)

Tell me the recorded outcome of this test for COc1cc2ncnc3c2cc1OCCCCCN(C)Cc1ccc(Br)cc1N3 .
no (0)

Tell me the recorded outcome of this test for NC(=O)c1ccc(N(C(N)=O)c2c(F)cccc2F)nc1-c1ccc(F)cc1F .
no (0)

Tell me the recorded outcome of this test for O=C(O)c1ccc2c(c1)nc(Nc1cccc(Cl)c1)c1ccncc12 .
yes (1)

Tell me the recorded outcome of this test for CNC(=O)c1cc(COc2nnc(Nc3ccc(Cl)cc3)c3ccoc23)ccn1 .
no (0)

Tell me the recorded outcome of this test for C[C@@H]1COC(Nc2ccc3ncnc(Nc4ccc(OCc5nccs5)c(Cl)c4)c3c2)=N1 .
no (0)

Tell me the recorded outcome of this test for CC(C)(O)CC(=O)NCCn1ccc2ncnc(Nc3ccc(Oc4cccc(C(F)(F)F)c4)c(Cl)c3)c21 .
no (0)

Where do the numbers come from? From ChEMBL document CHEMBL3991601.
